Hey, just so you know, these numbers are from ChEMBL document CHEMBL1129480.

targetOrSystem: Delta-type opioid receptor (Mus musculus, UniProt P32300)
Sequence (P32300 whole entry): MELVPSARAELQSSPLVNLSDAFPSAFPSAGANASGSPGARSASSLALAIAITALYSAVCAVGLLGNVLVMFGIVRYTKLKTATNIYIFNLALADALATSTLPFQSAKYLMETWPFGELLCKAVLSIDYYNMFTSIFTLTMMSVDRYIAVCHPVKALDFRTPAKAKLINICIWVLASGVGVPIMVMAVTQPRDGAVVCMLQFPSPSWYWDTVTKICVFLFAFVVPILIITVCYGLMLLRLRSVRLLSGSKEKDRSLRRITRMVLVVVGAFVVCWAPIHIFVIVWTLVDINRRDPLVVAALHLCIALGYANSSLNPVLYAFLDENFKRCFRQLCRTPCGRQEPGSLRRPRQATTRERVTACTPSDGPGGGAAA
assayProtocol: Inhibitory activity against Opioid receptor delta 1 of mouse vas deferens (MVD)
Square brackets hold non-standard residues; d marks the D form. Peptide text beside a SMILES is read from it. Ac6c = NC1(C(=O)O)CCCCC1; Ac5c = NC1(C(=O)O)CCCC1; Ac3c = NC1(C(=O)O)CC1
experimentalReadout: IC50 (µM)

compound	targetOrSystem	unitAbbreviation	experimentalValue
CC(C)[C@H](NC(=O)[C@H](CC(=O)O)NC(=O)C1(NC(=O)[C@H](C)NC(=O)[C@@H](N)Cc2ccc(O)cc2)CCCC1)C(=O)N[C@H](C(=O)NCC(N)=O)C(C)C (H-YA[Ac5c]DVVG-NH2)	Delta-type opioid receptor (Mus musculus, UniProt P32300)	µM	1.64
CC(C)[C@H](NC(=O)[C@@H](NC(=O)C1(NC(=O)[C@H](Cc2ccccc2)NC(=O)[C@H](C)NC(=O)[C@@H](N)Cc2ccc(O)cc2)CCCCC1)C(C)C)C(=O)NCC(N)=O (H-YAF[Ac6c]VVG-NH2)	Delta-type opioid receptor (Mus musculus, UniProt P32300)	µM	0.00052
CC(C)[C@H](NC(=O)[C@@H](NC(=O)C1(NC(=O)[C@H](Cc2ccccc2)NC(=O)[C@H](C)NC(=O)[C@@H](N)Cc2ccc(O)cc2)CCCC1)C(C)C)C(=O)NCC(N)=O (H-YAF[Ac5c]VVG-NH2)	Delta-type opioid receptor (Mus musculus, UniProt P32300)	µM	0.00019
CC(C)[C@H](NC(=O)[C@H](CC(=O)O)NC(=O)C1(NC(=O)[C@H](C)NC(=O)[C@@H](N)Cc2ccc(O)cc2)CC1)C(=O)N[C@H](C(=O)NCC(N)=O)C(C)C (H-YA[Ac3c]DVVG-NH2)	Delta-type opioid receptor (Mus musculus, UniProt P32300)	µM	0.458
CC(C)[C@H](NC(=O)[C@H](CC(=O)O)NC(=O)C1(NC(=O)[C@H](C)NC(=O)[C@@H](N)Cc2ccc(O)cc2)CCCCC1)C(=O)N[C@H](C(=O)NCC(N)=O)C(C)C (H-YA[Ac6c]DVVG-NH2)	Delta-type opioid receptor (Mus musculus, UniProt P32300)	µM	0.54
CC(C)[C@H](NC(=O)[C@@H](NC(=O)C1(NC(=O)[C@H](Cc2ccccc2)NC(=O)[C@H](C)NC(=O)[C@@H](N)Cc2ccc(O)cc2)CC1)C(C)C)C(=O)NCC(N)=O (H-YAF[Ac3c]VVG-NH2)	Delta-type opioid receptor (Mus musculus, UniProt P32300)	µM	0.00043

###

targetOrSystem: Mu-type opioid receptor (Rattus norvegicus, UniProt P33535)
Sequence (P33535 whole entry): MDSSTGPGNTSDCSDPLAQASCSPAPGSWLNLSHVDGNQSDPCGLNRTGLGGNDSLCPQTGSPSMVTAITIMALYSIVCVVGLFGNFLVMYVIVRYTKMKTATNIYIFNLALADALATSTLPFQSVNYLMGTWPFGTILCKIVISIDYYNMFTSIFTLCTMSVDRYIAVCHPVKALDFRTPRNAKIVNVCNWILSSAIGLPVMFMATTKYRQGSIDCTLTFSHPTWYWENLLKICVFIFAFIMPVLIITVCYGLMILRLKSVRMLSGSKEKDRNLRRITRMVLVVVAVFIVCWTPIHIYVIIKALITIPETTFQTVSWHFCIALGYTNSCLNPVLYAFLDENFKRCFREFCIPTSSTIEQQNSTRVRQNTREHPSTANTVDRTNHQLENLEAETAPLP
pKi: −log10 of the molar value. Square brackets hold non-standard residues; d marks the D form. Peptide text beside a SMILES is read from it. Ac6c = NC1(C(=O)O)CCCCC1
Below: a set of entries, each annotated with reported pKi.
experimentalReadout: pKi

molecule	experimentalReadout	experimentalValue
CC(C)[C@H](NC(=O)[C@@H](NC(=O)C1(NC(=O)[C@H](Cc2ccccc2)NC(=O)[C@H](C)NC(=O)[C@@H](N)Cc2ccc(O)cc2)CCCCC1)C(C)C)C(=O)NCC(N)=O (H-YAF[Ac6c]VVG-NH2)	pKi	8.61
CC(C)[C@H](NC(=O)[C@H](CC(=O)O)NC(=O)C1(NC(=O)[C@@H](N)Cc2ccc(O)cc2)CCCCC1)C(=O)N[C@H](C(=O)NCC(N)=O)C(C)C (H-Y[Ac6c]DVVG-NH2)	pKi	3.36
CC(C)[C@H](NC(=O)[C@H](CC(=O)O)NC(=O)[C@H](Cc1ccccc1)NC(=O)[C@@H](C)NC(=O)[C@@H](N)Cc1ccc(O)cc1)C(=O)N[C@H](C(=O)NCC(N)=O)C(C)C	pKi	6.83
CC(C)[C@H](NC(=O)[C@H](CC(=O)O)NC(=O)C1(NC(=O)C2(NC(=O)[C@@H](N)Cc3ccc(O)cc3)CCCCC2)CCCCC1)C(=O)N[C@H](C(=O)NCC(N)=O)C(C)C (H-Y[Ac6c][Ac6c]DVVG-NH2)	pKi	4.83
CC(C)[C@H](NC(=O)[C@H](CC(=O)O)NC(=O)C1(NC(=O)[C@H](C)NC(=O)[C@@H](N)Cc2ccc(O)cc2)CCCCC1)C(=O)N[C@H](C(=O)NCC(N)=O)C(C)C (H-YA[Ac6c]DVVG-NH2)	pKi	5.26

###

The listing below reports pIC50 for compounds tested on Mu-type opioid receptor (Cavia porcellus, UniProt P97266).
Sequence (P97266 whole entry): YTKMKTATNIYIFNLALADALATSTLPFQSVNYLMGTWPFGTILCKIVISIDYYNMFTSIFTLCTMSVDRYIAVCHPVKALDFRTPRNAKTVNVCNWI
pIC50: −log10 of the molar value. Square brackets hold non-standard residues; d marks the D form. Peptide text beside a SMILES is read from it. Ac6c = NC1(C(=O)O)CCCCC1; Ac5c = NC1(C(=O)O)CCCC1; Ac3c = NC1(C(=O)O)CC1

compound	readoutQualifier	pIC50
CC(C)[C@H](NC(=O)[C@@H](NC(=O)C1(NC(=O)[C@H](Cc2ccccc2)NC(=O)[C@H](C)NC(=O)[C@@H](N)Cc2ccc(O)cc2)CCCC1)C(C)C)C(=O)NCC(N)=O (H-YAF[Ac5c]VVG-NH2)	=	6.85
CC(C)[C@H](NC(=O)[C@H](CC(=O)O)NC(=O)[C@H](Cc1ccccc1)NC(=O)[C@@H](C)NC(=O)[C@@H](N)Cc1ccc(O)cc1)C(=O)N[C@H](C(=O)NCC(N)=O)C(C)C	=	6.47
CC(C)[C@H](NC(=O)[C@@H](NC(=O)C1(NC(=O)[C@H](Cc2ccccc2)NC(=O)[C@H](C)NC(=O)[C@@H](N)Cc2ccc(O)cc2)CC1)C(C)C)C(=O)NCC(N)=O (H-YAF[Ac3c]VVG-NH2)	=	7.82
CC(C)[C@H](NC(=O)[C@@H](NC(=O)C1(NC(=O)[C@H](Cc2ccccc2)NC(=O)[C@H](C)NC(=O)[C@@H](N)Cc2ccc(O)cc2)CCCCC1)C(C)C)C(=O)NCC(N)=O (H-YAF[Ac6c]VVG-NH2)	=	6.25
CC(C)[C@H](NC(=O)[C@H](CC(=O)O)NC(=O)C1(NC(=O)[C@H](C)NC(=O)[C@@H](N)Cc2ccc(O)cc2)CCCC1)C(=O)N[C@H](C(=O)NCC(N)=O)C(C)C (H-YA[Ac5c]DVVG-NH2)	<	5.00
CC(C)[C@H](NC(=O)[C@H](CC(=O)O)NC(=O)C1(NC(=O)[C@H](C)NC(=O)[C@@H](N)Cc2ccc(O)cc2)CC1)C(=O)N[C@H](C(=O)NCC(N)=O)C(C)C (H-YA[Ac3c]DVVG-NH2)	<	5.00
CC(C)[C@H](NC(=O)[C@H](CC(=O)O)NC(=O)C1(NC(=O)[C@H](C)NC(=O)[C@@H](N)Cc2ccc(O)cc2)CCCCC1)C(=O)N[C@H](C(=O)NCC(N)=O)C(C)C (H-YA[Ac6c]DVVG-NH2)	<	5.00

###

targetOrSystem: Delta-type opioid receptor (Rattus norvegicus, UniProt P33533)
Sequence (P33533 whole entry): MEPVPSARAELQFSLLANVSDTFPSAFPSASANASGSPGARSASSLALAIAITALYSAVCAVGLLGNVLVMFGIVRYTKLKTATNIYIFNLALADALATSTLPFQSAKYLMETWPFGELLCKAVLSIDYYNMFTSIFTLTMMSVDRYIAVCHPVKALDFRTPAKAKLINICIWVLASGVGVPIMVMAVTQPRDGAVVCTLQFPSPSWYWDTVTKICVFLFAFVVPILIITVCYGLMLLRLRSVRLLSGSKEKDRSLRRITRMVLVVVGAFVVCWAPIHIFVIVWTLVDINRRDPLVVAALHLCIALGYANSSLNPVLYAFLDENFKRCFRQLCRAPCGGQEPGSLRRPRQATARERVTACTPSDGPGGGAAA
assayProtocol: Displacement of [3H]DPDPE (0.63 nM) from Opioid receptor delta 1
Square brackets hold non-standard residues; d marks the D form. Peptide text beside a SMILES is read from it. Ac5c = NC1(C(=O)O)CCCC1; Ac3c = NC1(C(=O)O)CC1
Reported Ki values for the following compounds.

compound	Ki, nM
CC(C)[C@H](NC(=O)[C@@H](NC(=O)C1(NC(=O)[C@H](Cc2ccccc2)NC(=O)[C@H](C)NC(=O)[C@@H](N)Cc2ccc(O)cc2)CCCC1)C(C)C)C(=O)NCC(N)=O (H-YAF[Ac5c]VVG-NH2)	0.054
CC(C)[C@H](NC(=O)[C@H](CC(=O)O)NC(=O)C1(NC(=O)[C@H](C)NC(=O)[C@@H](N)Cc2ccc(O)cc2)CCCC1)C(=O)N[C@H](C(=O)NCC(N)=O)C(C)C (H-YA[Ac5c]DVVG-NH2)	15.4
CC(C)[C@H](NC(=O)[C@H](CC(=O)O)NC(=O)C1(NC(=O)[C@H](C)NC(=O)[C@@H](N)Cc2ccc(O)cc2)CC1)C(=O)N[C@H](C(=O)NCC(N)=O)C(C)C (H-YA[Ac3c]DVVG-NH2)	19
